Value source: paper PMC6230509

Provide the recorded pKi for the entries that follow.
Recall that pKi is obtained by taking minus log10 of the concentration measured in molar.

Entry `C=CCN(CC=C)CCc1c(-c2ccccc2)[nH]c2ccccc12` , tested on H1 (Homo sapiens, UniProt P35367), has a reported pKi of 7.10

Note to self: pKi of `C=CCN(CC=C)CCc1c[nH]c2cccc(OC(C)=O)c12` with H1 (Homo sapiens, UniProt P35367) was 6.45

# `C=CCN(CC=C)CCc1c[nH]c2c(CC)cccc12` with H1 (Homo sapiens, UniProt P35367): pKi is 6.04

Reading of pKi for `C=CCN(CC=C)CCc1c(C)[nH]c2ccc(OC)cc12` with H1 (Homo sapiens, UniProt P35367): 6.07

// molecule `C=CCN(CC=C)CCc1c(C)[nH]c2ccc(F)cc12` , assay H1 (Homo sapiens, UniProt P35367), pKi value: 6.36
